# PROCEDURE_SUMMARY: physchem
# EXPERIMENTAL_CONDITIONS: buffered solution containing 5% DMSO
Each entry below lists one item and its recorded pKa at 100 µM value.
API doc: respond with a numeric literal and nothing else, no unit.

1) O=C1C(NC2CCCC2)=C(NS(=O)(=O)c2ccccc2)C(=O)c2ccccc21 = 10.1
2) Cc1cc(C)cc(OC2=C(NS(=O)(=O)c3ccccc3)C(=O)c3ccccc3C2=O)c1 = 5
3) COCCNC1=C(NS(=O)(=O)c2ccccc2)C(=O)c2ccccc2C1=O = 9.8
4) Cc1cc(C)cc(NC2=C(NS(=O)(=O)c3ccc(F)cc3)C(=O)c3ccccc3C2=O)c1 = 9.9
5) Cc1cc(C)cc(NC2=C(NS(=O)(=O)c3ccccc3)C(=O)c3ccc([N+](=O)[O-])cc3C2=O)c1 = 7.5
6) O=C1C(NS(=O)(=O)c2ccccc2)=C(Oc2ccc(Br)cc2)C(=O)c2ccccc21 = 5

[Q] Name the reported pKa at 100 µM value associated with the molecule `Cc1cc(C)cc(NC2=C(NS(=O)(=O)c3cccc([N+](=O)[O-])c3)C(=O)c3ccccc3C2=O)c1`
[A] 8.6

[Q] Name the reported pKa at 100 µM value associated with the molecule `O=C1C(Nc2ccc(Br)cc2)=C(NS(=O)(=O)c2ccccc2)C(=O)c2ccccc21`
[A] 10.4

[Q] Name the reported pKa at 100 µM value associated with the molecule `O=Cc1cccc(C2=C(NC(=O)c3ccccc3)C(=O)c3ccccc3C2=O)c1`
[A] 10.9

[Q] Name the reported pKa at 100 µM value associated with the molecule `Cc1cc(C)cc(NC2=C(NS(=O)(=O)c3ccccc3)C(=O)c3cc([N+](=O)[O-])ccc3C2=O)c1`
[A] 8

[Q] Name the reported pKa at 100 µM value associated with the molecule `Cc1cc(C)cc(NC2=C(NS(=O)(=O)c3ccco3)C(=O)c3ccccc3C2=O)c1`
[A] 8.3

[Q] Name the reported pKa at 100 µM value associated with the molecule `O=Cc1ccc(C2=C(NS(=O)(=O)c3ccccc3)C(=O)c3ccccc3C2=O)cc1`
[A] 4.6

[Q] Name the reported pKa at 100 µM value associated with the molecule `O=C1C(NCc2ccccc2)=C(NS(=O)(=O)c2ccccc2)C(=O)c2ccccc21`
[A] 10.4

[Q] Name the reported pKa at 100 µM value associated with the molecule `O=Cc1cccc(C2=C(NS(=O)(=O)c3ccccc3)C(=O)c3ccccc3C2=O)c1`
[A] 5

[Q] Name the reported pKa at 100 µM value associated with the molecule `Cc1cc(C)cc(NC2=C(NS(=O)(=O)Cc3ccccc3)C(=O)c3ccccc3C2=O)c1`
[A] 10

[Q] Name the reported pKa at 100 µM value associated with the molecule `O=C1C(NS(=O)(=O)c2ccccc2)=C(c2ccccc2Cl)C(=O)c2ccccc21`
[A] 4.9

[Q] Name the reported pKa at 100 µM value associated with the molecule `O=C1C(NS(=O)(=O)c2ccccc2)=C(c2ccc(Cl)cc2)C(=O)c2ccccc21`
[A] 5

[Q] Name the reported pKa at 100 µM value associated with the molecule `Cc1cc(C)cc(NC2=C(NS(=O)(=O)c3ccccc3[N+](=O)[O-])C(=O)c3ccccc3C2=O)c1`
[A] 7.9

[Q] Name the reported pKa at 100 µM value associated with the molecule `O=C(NC1=C(c2ccoc2)C(=O)c2ccccc2C1=O)c1ccccc1`
[A] 12.1
